Data provenance: the array DNA melting data of Ke et al. (doi:10.1101/2024.01.08.574731)

test: melting temperature; fluorescence melt of hairpins on a sequencing array, two-state fit, raised by 9.35 °C to match UV melts; settings: sodium 0.088 M
Assign Tm to each entry below.
Give just the number in °C; leave the unit off.

Form field: reported Tm of GAGTGCGAAAGCATCTC ((((((....))).)))
52.1

Form field: reported Tm of GATCTGCTGCCAGATC ((((((....))))))
49.8

Form field: reported Tm of GCCAATGGAAACATTGAC (.(((((....))))).)
37.7

Form field: reported Tm of GAATGCCGAAAGGCGTTC (((.(((....))).)))
61.6

Form field: reported Tm of GTAAATCGAAAGATATAC (((.(((....))).)))
29.7

Form field: reported Tm of GAACGCGGAAACGCGCTC ((.((((....)))).))
50.3

Form field: reported Tm of GCTTACCGAAAGGTCAGC (((.(((....))).)))
50.3

Form field: reported Tm of GTAGACGAAAGTCCCTAC ((((((....)))..)))
19.7

Form field: reported Tm of GATAGCGAAAGCTCGATC ((((((....)))..)))
24.8

Form field: reported Tm of GTCTGCGAAAGCATTGAC ((((((....)))..)))
40.2

Form field: reported Tm of GCCCGGCGAAAGCGAGGC (((..((....))..)))
58.9

Form field: reported Tm of GCGAACTATCGC ((((....))))
45.4

====

Assign Tm to each entry below.
test: melting temperature; fluorescence melt of hairpins on a sequencing array, two-state fit, raised by 9.35 °C to match UV melts; conditions: sodium 0.088 M
Give just the number in °C; leave the unit off.

Form field: reported Tm of GCGAGACGAAAGTCCGC (((.(((....))))))
67.2

Form field: reported Tm of GTGGATGGAAACATCTAC ((.((((....)))).))
46.8

Form field: reported Tm of GATATAGGAAACTGTATC ((((.((....)).))))
34.6

Form field: reported Tm of GGCTTGCCGAAAGGCGCC (((..(((....))))))
55.8

Form field: reported Tm of GTAACGCGAAAGCGATAC (((.(((....))).)))
51

Form field: reported Tm of CGTCTCGGAAACGACACG (((.(((....))).)))
35.5

Form field: reported Tm of GATCAACATTTTGATC ((((((....))))))
42.6

Form field: reported Tm of GCGGTGCGAAAGCAAGGC ((..(((....)))..))
51.2

Form field: reported Tm of GCAGTGCGAAAGCGATGC (((..((....))..)))
62.4

Form field: reported Tm of GTGCTTGGAAACGAGCAC (((((.(....).)))))
55.5

Form field: reported Tm of GGGCACGAAAGTGGTCCC ((((((....)))..)))
52.5

Form field: reported Tm of GTCGTGCGAAAGCAGAC (((.(((....))))))
56.5

====

assay: folding enthalpy; higher = less favourable; fluorescence melt of hairpins on a sequencing array, two-state fit; details: sodium 0.088 M
Is folding enthalpy at least -20 kcal/mol? Then condition met. If not, condition not met.

Dear colleague, could you confirm whether GATCAATGTTTGATC ((((((...)))))) has folding enthalpy at or above -20 kcal/mol?
condition not met

Dear colleague, could you confirm whether GCCTGTCGAAAGACTGGC (((.(((....))).))) has folding enthalpy at or above -20 kcal/mol?
condition not met

Dear colleague, could you confirm whether GACCGTGGAAACACGACC (..((((....))))..) has folding enthalpy at or above -20 kcal/mol?
condition met

Dear colleague, could you confirm whether GAAAGCGAAAGCTGCTTC ((((((....)))..))) has folding enthalpy at or above -20 kcal/mol?
condition met

Dear colleague, could you confirm whether GATCTATCGGTAGATC ((((((....)))))) has folding enthalpy at or above -20 kcal/mol?
condition not met

Dear colleague, could you confirm whether GTCGTCCGAAAGGAGAC (((.(((....)))))) has folding enthalpy at or above -20 kcal/mol?
condition not met
